system: methicillin resistant S. aureus Mu50 strain (S. aureus ATCC700699) biofilm; test: Biofilm susceptibility to vancomycin, pre-treatment regimen (biofilm formed in presence of compound, then vancomycin); assay type: cell-based; conditions: concentration needed to get 50% killing compared to antibiotic alone (VAN 20 μg/ml) and complete killing; read-out: Pretreat. (EC50)
Measured EC50 accompanies every entry in the list below.
Write the number in µM without appending the unit.

Any idea what EC50 came out for O=C(NC[C@]1(O)CO[C@H](CNC(=O)c2cnc(Cl)cc2Cl)[C@H]1O)c1ccccc1 on methicillin resistant S. aureus Mu50 strain (S. aureus ATCC700699) biofilm?
10.8

Then what about the compound O=C(NC[C@H]1OC[C@@](O)(CNC(=O)c2cc(O)c(O)c(O)c2)[C@@H]1O)c1cc(O)c(O)c(O)c1 ?
63.8
